Source listed as PubChem BioAssay (Tox21).

Assay: qHTS assay to test for compound auto fluorescence at 590 nm (red) in HEK293 cells (AID 720679); note: % is set by controls: 0 for no effect and ±100 for the full control effect
Details: red autofluorescence 540/590 nm; series mostly up to 91.3 µM
From the text: National Center for Advancing Translational Sciences [NCATS] NIH Chemical Genomics Center [NCGC] U.S. Environmental Protection Agency [EPA] National Institutes of Environmental Health Sciences [NIEHS] National Toxicology Program [NTP] U.S. Food and Drug Administration [FDA] Compound auto fluorescence often interferes with screening of the compound library against various biological targets and signaling pathways. Some of these compounds may have fluorophoric properties. […]
Activity calls are given as the source filed them. Calls come from the whole dose curve; as a rule, active = well fitted curve in the direction sought with a large enough effect in the repeat runs; inconclusive = weak or mixed curves; inactive = flat fitted curve, though single readings scatter. Non-standard residues stand in square brackets, D forms with d. Residues, ends and D or L forms follow the SMILES beside them. *: point of attachment. Sta = CC(C)C[C@H](N)[C@@H](O)CC(=O)O; Isovaleryl = CC(C)CC(=O)*
Readout name: fluorescence, % of fluorescent control

Example entries begin here.
Reported fluorescence, % of fluorescent control, molecule `CCCCCC(=O)CC` : ____
inactive

Name the reported fluorescence, % of fluorescent control value associated with the molecule CC(C)CC(=O)N[C@H](C(=O)N[C@H](C(=O)N[C@@H](CC(C)C)[C@@H](O)CC(=O)N[C@@H](C)C(=O)N[C@@H](CC(C)C)[C@@H](O)CC(=O)O)C(C)C)C(C)C (Isovaleryl-VV[Sta]A[Sta]-OH)
inactive

Name the reported fluorescence, % of fluorescent control value associated with the molecule `O=Cc1ccccc1S(=O)(=O)O`
inactive

I'd like to know its fluorescence, % of fluorescent control. The molecule in question is `CNCCc1ccccn1`
0.589% [at 18.6 µM] (inactive)

What value of measured fluorescence, % of fluorescent control is listed for `Clc1cc(Cl)c(Cl)c(Cl)c1Cl` ?
inactive

New cases:
I have this molecule here, CCC(C)SSC(C)CC (stereo unspecified) , and I need its recorded fluorescence, % of fluorescent control.
inactive

* * *

molecular target: Progesterone receptor (Homo sapiens) (UniProt P06401); assay: qHTS assay to identify small molecule antagonists of the progesterone receptor (PR) signaling pathway (AID 1346795); settings: PR-UAS-bla HEK293T, beta-lactamase FRET ratio, 16 h; series mostly up to 92.4 µM; note: % is set by controls: 0 for no effect and ±100 for the full control effect
Sequence (P06401 whole entry, looked up): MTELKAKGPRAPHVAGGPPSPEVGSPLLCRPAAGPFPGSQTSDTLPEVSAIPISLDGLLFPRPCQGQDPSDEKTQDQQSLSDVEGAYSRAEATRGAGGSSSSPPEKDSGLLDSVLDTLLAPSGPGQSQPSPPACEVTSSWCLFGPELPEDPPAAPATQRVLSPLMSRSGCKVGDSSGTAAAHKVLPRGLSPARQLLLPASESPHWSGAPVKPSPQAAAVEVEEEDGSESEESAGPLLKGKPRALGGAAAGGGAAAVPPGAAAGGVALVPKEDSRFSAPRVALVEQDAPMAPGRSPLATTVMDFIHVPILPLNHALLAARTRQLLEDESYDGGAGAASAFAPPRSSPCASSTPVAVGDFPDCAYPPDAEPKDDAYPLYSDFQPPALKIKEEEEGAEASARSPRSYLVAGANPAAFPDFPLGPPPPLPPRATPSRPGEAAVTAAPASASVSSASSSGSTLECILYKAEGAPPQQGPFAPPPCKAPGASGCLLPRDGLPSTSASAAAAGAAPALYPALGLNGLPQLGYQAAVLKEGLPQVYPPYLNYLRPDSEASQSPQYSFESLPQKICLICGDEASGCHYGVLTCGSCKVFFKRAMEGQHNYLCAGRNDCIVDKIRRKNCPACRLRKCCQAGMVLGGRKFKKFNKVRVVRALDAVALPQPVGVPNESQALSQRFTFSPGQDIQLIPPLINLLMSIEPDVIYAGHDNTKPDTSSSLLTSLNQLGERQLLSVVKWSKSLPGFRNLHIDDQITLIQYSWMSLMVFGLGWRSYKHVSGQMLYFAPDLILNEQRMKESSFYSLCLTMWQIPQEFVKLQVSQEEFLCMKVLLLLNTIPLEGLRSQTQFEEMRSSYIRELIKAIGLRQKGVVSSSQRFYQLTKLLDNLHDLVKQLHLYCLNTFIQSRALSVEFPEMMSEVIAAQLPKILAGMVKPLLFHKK
Inconclusive results are not listed. The source made the active and inactive calls. Calls come from the whole dose curve; as a rule, active = well fitted inhibition curve with a large enough effect in the signal ratio in the repeat runs (not every such curve was filed as active); inconclusive = weak or mixed curves; inactive = flat fitted curve, though single readings scatter; the % refers to the signal ratio.
Readout name: activity change, negative = inhibition

So what does the record say about activity change, negative = inhibition for `N#Cc1ccccc1C#N` ?
inactive

Recorded activity change, negative = inhibition of `Cc1ccc2cccnc2c1` , please.
inactive

activity change, negative = inhibition lookup needed for `C/C=C(\C)C=O` , thanks.
inactive

Please give the measured activity change, negative = inhibition for this compound: `Cc1cc(C)c(N)c(Cl)c1`
inactive

Further cases:
Fill in the blank: the reported activity change, negative = inhibition of `CCCCCCCOC(C)=O` is ____.
inactive

Query: activity change, negative = inhibition; subject: `CCCCc1ccc(Cl)cc1`
inactive

# activity change, negative = inhibition lookup, item `O=C1CCCc2c(O)cccc21`
inactive

* * *

assay: qHTS assay to identify small molecule antagonists of the retinoic acid receptor (RAR) signaling pathway (AID 1159552; note: % is set by controls: 0 for no effect and ±100 for the full control effect; nearly all actives have a fitted effect of over 50% in size); settings: C3RL4 RARE luciferase reporter, retinol-stimulated, 6 h; series mostly up to 92.4 µM
Results filed as inconclusive are left out. Activity calls are given as the source filed them. The call rests on the fitted dose curve; in most records, active means well fitted inhibition curve with a large enough effect in the repeat runs; inconclusive means weak or mixed curves, or effect the other way; inactive means no such curve, though single readings can be large or run the other way.
Readout name: activity, negative = inhibition

Below, 5 molecules whose answers are already recorded.
Quick one: activity, negative = inhibition for `Cc1nnc(C(=O)NC(C)(C)c2nc(C(=O)NCc3ccc(F)cc3)c(O)c(=O)n2C)o1` ?
inactive

So what does the record say about activity, negative = inhibition for `CC(C)=CCC/C(C)=C\C#N` ?
inactive

Could you tell me which activity, negative = inhibition is on file for `O=C[C@@H](O)[C@H](O)[C@H](O)CO` ?
inactive

Record request: activity, negative = inhibition value, item `CCOC(=O)CC(C(C)=O)C(C)=O`
inactive

Could you share which activity, negative = inhibition value was measured for `c1cc2ccc3ccc4ccc5cccc6c(c1)c2c3c4c56` ?
-1.28% [at 3.27 µM] (inactive)

Next:
Consider the molecule shown here: `Cc1ccc(NC(N)=O)cc1` What is its recorded activity, negative = inhibition?
inactive

Reported activity, negative = inhibition, molecule `CC(=O)c1c(C)cc(C(C)(C)C)cc1C` : ____
inactive
